System: COS Cell
Assay: COS Cell IC50 (Cell-Based Assay, procedure of WO 95/10516)
Observable: IC50 (nM)
Express it in nM; write the number only.

Measured IC50 of NC(=O)N1CC[C@@H](CC(=O)N2CCC(C3c4ncc(Br)cc4CCc4cc(Cl)cc(Cl)c43)CC2)C1 (single isomer, unassigned) : 0.03
